Record form. Attribute: fluorescence lifetime. Fill in for each entry.
# experimentNotes: solvent given as SMILES
# measurementSetup: in CC(C)=O
Answers are plain numbers, in ns.

Some solved cases for reference:
# smilesRepr, fluorescence lifetime / ns
data = [
    ("CC1(C)c2ccccc2N(c2ccc(S(=O)(=O)c3ccc(N4c5ccccc5C(C)(C)c5ccccc54)cc3)cc2)c2ccccc21", 20),
    ("CN(C)c1ccc(/C=C2\\CC/C(=C\\c3ccc(N(C)C)cc3)C2=O)cc1", 0.74),
    ("CCCCCCCCC1(CCCCCCCC)c2ccccc2-c2ccc(N(c3ccc(-n4c5ccccc5c5ccccc54)cc3)c3ccc4c(c3)C(CCCCCCCC)(CCCCCCCC)c3ccccc3-4)cc21", 1.75),
    ("Cc1ccc(-c2cc(-c3ccccc3Cl)c3c(N)nc(N4CCCC4)c(C#N)c3n2)cc1", 11.1),
    ("COc1ccc(N(c2ccc(OC)cc2)c2ccc3ccc4c(B(c5c(C)cc(C)cc5C)c5c(C)cc(C)cc5C)ccc5ccc2c3c54)cc1", 0.7),
    ("COc1cc(-c2cc(-c3ccc(C)cc3)nc3c(C#N)c(N4CCCC4)nc(N)c23)cc(OC)c1OC", 10.4),
    ("CC(C)(C)NC1=C2C=CC=[N+]2[B-](F)(F)n2cccc21", 0.0272),
    ("CCC1=C(C)C2=C(C)c3cccn3[B-](F)(F)[N+]2=C1C", 5.66),
]

Let us move to another entry and its fluorescence lifetime.
// Input: `CCC1=C(C)C2=Cc3c(I)c(I)cn3[B-](F)(F)[N+]2=C1C` . Output its fluorescence lifetime only. 0.097

* * *

# experimentNotes: solvent given as SMILES
# measurementSetup: in C1CCOC1
Please provide measured fluorescence lifetime for the entries that follow.
Give bare numbers, in ns.

// below: answered compounds
# compound, unitsSymbol, fluorescence lifetime
data = [
    ("O=P1(c2ccccc2)C(c2cc(C(F)(F)F)cc(C(F)(F)F)c2)=Cc2c3ccc4cccc5ccc(c6cc(-c7ccccc7)n1c26)c3c45 (stereo not given)", "ns", 3.1),
    ("O=C1c2cc(-c3ccccc3)ccc2-c2ccc(-c3ccccc3)cc21", "ns", 1),
    ("COc1cccc(OC)c1C1=C2C(C)=CC(C)=[N+]2[B-](F)(F)n2c(C)cc(C)c21", "ns", 5.77),
    ("N#Cc1c[nH]c2ccccc12", "ns", 3.1),
]

For every item in the list below, what is its measured fluorescence lifetime?
1. N#Cc1ccc(C=C(c2ccccc2)c2ccccc2)cc1
2. O=C(O)c1ccc2ccc3cccc4ccc1c2c34
3. CSc1sc(C(=O)c2ccccc2)c2nn[nH]c(=O)c12
4. O=C(O)c1c2ccccc2nc2ccccc12

[31, 10.6, 0.33, 1.1]

For each listed entry, give its fluorescence lifetime.
1. Cc1csc2[n+]1[B-](F)(F)OC(c1ccc(N(C)C)cc1)=N2
2. CC(=O)O[B-]1(OC(C)=O)OC(/C=C/c2cccc3ccccc23)=CC(/C=C/c2cccc3ccccc23)=[O+]1

[2.24, 5.75]

* * *

# experimentNotes: solvent given as SMILES
# measurementSetup: in CC#N
Assign log10(fluorescence lifetime) to each entry below.
Each number you see is log10 of fluorescence lifetime, and the unit inside the log is ns.

# compound, assayEndpoint, quantitativeResult
measured = [
    ("O=C1c2ccccc2C(=O)C1C1C(=O)c2c3ccccc3cc3cc4ccccc4c1c23 (stereo unspecified)", "log10(fluorescence lifetime)", 0.92),
    ("C[n+]1ccc2c(ccc3c[n+](C)ccc32)c1", "log10(fluorescence lifetime)", 0.82),
    ("COc1nc(Cl)nc(Nc2ccc3c4c(cccc24)C(=O)c2ccccc2-3)n1", "log10(fluorescence lifetime)", 0.92),
    ("CCOC(=O)c1ccc2nc(/N=N/c3ccc(N(CC)CC)cc3)sc2c1", "log10(fluorescence lifetime)", 0.75),
    ("O=C1c2cc(F)ccc2-c2cnccc21", "log10(fluorescence lifetime)", 0.75),
    ("O=c1oc2ccccc2cc1/C=C/c1ccc([N+](=O)[O-])cc1", "log10(fluorescence lifetime)", -1.10),
]

Dear colleague, could you send me log10(fluorescence lifetime) for each of the items below? Thanks.
1. CN(C)c1ccc(/C=C/c2nc3c4ccccc4c4ccccc4c3o2)cc1
2. COc1nc(Nc2ccc3c4c(cccc24)C(=O)c2ccccc2-3)nc(OC)n1
3. c1ccc2c(c1)CCc1c-2cnc2c1-c1ccccc1CC2
4. COc1ccc(-c2c(-c3ccc(OC)cc3)c3c4c(cccc4c2-c2ccccc2)C(=O)c2ccccc2-3)cc1
5. COc1ccc2c(c1)c1c(OC)c3ccccc3c(OC)c1n2C

[0.33, 0.96, 0.56, 0.36, 1.49]
